- method_notes: chemical genetic growth profiling, strain panel (AID 1159580);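 note: tested at 20 µM; growth read once vehicle control cultures reached saturation at 30 °C; lower values mean less growth of the strain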
- measurement_parameters: S. cerevisiae deletion strains, growth OD, locus YLR262C, strain YPT6, stronger effect = lower value
Screen size: about 5,500 compounds; about 2,000 (36%) were called active. Roughly 18% stayed inconclusive and do not appear here. The list shows a part of the results.
So basically, if normalized growth comes in under 1 it's yes, and if it's 1 or more it's no.

1) ON=C(c1cccs1)c1cccs1    yes
2) FC(F)(F)c1ccc(Cl)c(NC(=S)NN=C2CCCCCC2)c1    yes
3) CCCCCCCCCCCCCCCCCC(=O)OC(CC(=O)O)C[N+](C)(C)C (stereo not given)    no
4) C[C@@H]1O[C@@H](OC[C@H]2OC(Oc3c(-c4ccc(OCCO)c(OCCO)c4)oc4cc(OCCO)cc(O)c4c3=O)[C@H](O)[C@@H](O)[C@@H]2O)[C@H](O)[C@H](O)[C@H]1O (stereo not given in full)    no
5) CN(C)C=Nc1nnc(SCc2ccc(C(=O)Oc3ccc(F)cc3F)cc2)s1    no
6) COc1cc(O)c2c(=O)c(O)c(-c3ccc(O)c(O)c3)oc2c1    yes
7) C/C(=N/NC(=S)Nc1ccc(C(C)C)cc1)c1ccco1    yes
